System: Mycobacterium tuberculosis
test: Antitubercular activity against Mycobacterium tuberculosis H37Rv incubated for 6 days by alamar blue assay
Type: functional
condition-info: 144 h, time 6 day
Property: MIC99; scope: individual compounds
endpoint: MIC99 (µg/mL)

smiles-structure | measure-unit | value-operator | endpoint-result
CCCCOC(=O)Nc1cc2nc(SCC3CCCCC3)[nH]c2cc1N(C)C | µg/mL | = | 0.015
CCC(CC)C(=O)Nc1cc2nc(Cc3ccccc3)[nH]c2cc1N(C)C | µg/mL | > | 10
CN(C)c1cc2[nH]c(Cc3ccccc3)nc2cc1NC(=O)c1ccccc1 | µg/mL | = | 1.25
COc1ccc(CC(=O)Nc2cc3nc(CN(C)c4ccccc4)[nH]c3cc2N(C)C)cc1 | µg/mL | > | 10
CN(C)c1cc2[nH]c(C3CCCC3)nc2cc1NC(=O)c1ccccc1 | µg/mL | = | 1.56
Cc1ccc(C(=O)Nc2cc3nc(Cc4ccccc4)[nH]c3cc2N(C)C)cc1 | µg/mL | = | 1.56
CN(C)c1cc2[nH]c(Cc3ccccc3)nc2cc1NC(=O)C(C)(C)C | µg/mL | > | 10
CN(C)c1cc2[nH]c(C3CCCCC3)nc2cc1NC(=O)c1ccc(OC(F)(F)F)cc1F | µg/mL | = | 0.16
CCCCOC(=O)Nc1cc2nc(SC(C)C)[nH]c2cc1N(C)C | µg/mL | = | 0.31
CN(C)c1cc2[nH]c(CN(C)c3ccccc3)nc2cc1NC(=O)c1ccc(F)cc1F | µg/mL | = | 1.25

----------
Property: log10(MIC99); scope: individual compounds
System: Mycobacterium tuberculosis
test: Antitubercular activity against Mycobacterium tuberculosis H37Rv incubated for 6 days by alamar blue assay
Type: functional
condition-info: 144 h, time 6 day
endpoint: log10(MIC99) (log10 of the value in µg/mL)

smiles-structure | study-system | log10(MIC99)
COc1ccccc1C(=O)Nc1cc2nc(C3CCCC3)[nH]c2cc1N(C)C | Mycobacterium tuberculosis | 1.10
CCCCOC(=O)Nc1cc2nc(CN(CCC)CCC)[nH]c2cc1N(C)C | Mycobacterium tuberculosis | -0.80
CN(C)c1cc2[nH]c(C3CCCC3)nc2cc1NC(=O)c1ccc(OC(F)(F)F)cc1 | Mycobacterium tuberculosis | 0.19
CN(C)c1cc2[nH]c(C3CCCC3)nc2cc1NC(=O)c1ccc(F)cc1F | Mycobacterium tuberculosis | -0.20
CN(C)c1cc2[nH]c(C3CCOCC3)nc2cc1NC(=O)c1ccc(OC(F)(F)F)cc1F | Mycobacterium tuberculosis | 1.00

----------
test: Cytotoxicity against human HepG2 cells assessed as reduction in cell viability at 20 uM incubated for 72 hrs by MTT assay relative to control
Type: cell-based
condition-info: read-out: INH
Label scheme for cytotoxicity at 72 h, 20 µM: lower than 30% is n, 30% and above is y.

smiles-structure | category
CCCCOC(=O)Nc1cc2nc(SC3CCCCC3)[nH]c2cc1N(C)C | y
CN(C)c1cc2[nH]c(C3CCCCC3)nc2cc1NC(=O)c1ccc(OC(F)(F)F)cc1F | y
CCCCOC(=O)Nc1cc2nc(SCC3CCCCC3)[nH]c2cc1N(C)C | n
CCCCOC(=O)Nc1cc2nc(C(CC)CC)[nH]c2cc1N(C)C | y

----------
test: Cytotoxicity against human WI-38 cells assessed as reduction in cell viability at 20 uM incubated for 72 hrs by MTT assay relative to control
Assay type: cell-based
condition-info: read-out: INH
Label scheme for cytotoxicity at 72 h, 20 µM: lower than 80% is Not met, 80% and above is Met.

smiles-structure | category
CCCCOC(=O)Nc1cc2nc(Cc3ccccc3)[nH]c2cc1N(C)C | Met
CCCCOC(=O)Nc1cc2nc(SCC3CCCCC3)[nH]c2cc1N(C)C | Not met
CCCCOC(=O)Nc1cc2nc(CN3CCCCC3)[nH]c2cc1N(C)C | Not met
CCCCOC(=O)Nc1cc2nc(C3CCCC3)[nH]c2cc1N(C)C | Met
CCCCOC(=O)Nc1cc2nc(C(CC)CC)[nH]c2cc1N(C)C | Not met
CCCCOC(=O)Nc1cc2nc(SC3CCCCC3)[nH]c2cc1N(C)C | Met
CN(C)c1cc2[nH]c(CN(C)c3ccccc3)nc2cc1NC(=O)c1ccc(OC(F)(F)F)cc1F | Not met
CCCCOC(=O)Nc1cc2nc(CN(CCC)CCC)[nH]c2cc1N(C)C | Not met

----------
Test system: Mycobacterium tuberculosis
test: Antitubercular activity against Mycobacterium tuberculosis H37Rv incubated for 6 days by alamar blue assay
Format: functional
condition-info: 144 h, time 6 day
endpoint: log10 of MIC99 (log10 of the value in µg/mL)

smiles-structure | endpoint | endpoint-result
CCCCOC(=O)Nc1cc2nc(SC)[nH]c2cc1N(C)C | log10 of MIC99 | 0.98
CCCCOC(=O)Nc1cc2nc(SCc3ccccc3)[nH]c2cc1N(C)C | log10 of MIC99 | -0.51
CC(C)c1nc2cc(NC(=O)c3ccc(C(C)(C)C)cc3)c(N(C)C)cc2[nH]1 | log10 of MIC99 | -0.11
CN(C)c1cc2[nH]c(Cc3ccccc3)nc2cc1NC(=O)c1ccc(C(C)(C)C)cc1 | log10 of MIC99 | -0.48
Cc1ccc(C(=O)Nc2cc3nc(C4CCCC4)[nH]c3cc2N(C)C)cc1 | log10 of MIC99 | -0.20

----------
System: Mycobacterium tuberculosis
test: Antitubercular activity against Mycobacterium tuberculosis H37Rv incubated for 6 days by alamar blue assay
Format: functional
condition-info: 144 h, time 6 day
endpoint: log10(MIC99) (log10 of the value in µg/mL)

smiles-structure | log10(MIC99)
CN(C)c1cc2[nH]c(Cc3ccccc3)nc2cc1NC(=O)c1ccc(F)cc1 | -0.20
CCCCOC(=O)Nc1cc2nc(C(CC)CC)[nH]c2cc1N(C)C | -1.11
CCC(CC)c1nc2cc(NC(=O)c3ccc(OC(F)(F)F)cc3)c(N(C)C)cc2[nH]1 | -0.51
CN(C)c1cc2[nH]c(Cc3ccccc3)nc2cc1NC(=O)c1ccc(OC(F)(F)F)cc1 | 0.10
CCCCOC(=O)Nc1cc2nc(CN3CCCCC3)[nH]c2cc1N(C)C | -0.85
CCC(CC)c1nc2cc(NC(=O)c3ccccc3OC)c(N(C)C)cc2[nH]1 | 0.19
Cc1ccc(C(=O)Nc2cc3nc(CN(C)c4ccccc4)[nH]c3cc2N(C)C)cc1 | 0.10
CCCCOC(=O)Nc1cc2nc(C3CCCC3)[nH]c2cc1N(C)C | -0.51
CCC(CC)c1nc2cc(NC(=O)c3ccccc3)c(N(C)C)cc2[nH]1 | 0.19
CN(C)c1cc2[nH]c(CN(C)c3ccccc3)nc2cc1NC(=O)c1ccc(OC(F)(F)F)cc1F | -0.54
CCC(CC)c1nc2cc(NC(=O)c3ccc(F)cc3)c(N(C)C)cc2[nH]1 | -0.11
CN(C)c1cc2[nH]c(Cc3ccccc3)nc2cc1NC(=O)c1ccc(F)cc1F | -0.20
CN(C)c1cc2[nH]c(C3CCCC3)nc2cc1NC(=O)c1ccc(F)cc1 | -0.11
COc1ccc(C(=O)Nc2cc3nc(Cc4ccccc4)[nH]c3cc2N(C)C)cc1 | 0.10
CCC(CC)c1nc2cc(NC(=O)c3ccc(C)cc3)c(N(C)C)cc2[nH]1 | -0.30
CCCCOC(=O)Nc1cc2nc(C3CCCCC3)[nH]c2cc1N(C)C | -1.22

----------
Tested on: Mycobacterium tuberculosis
test: Antitubercular activity against Mycobacterium tuberculosis H37Rv incubated for 6 days by alamar blue assay
Type: functional
condition-info: 144 h, time 6 day
Property: MIC99; scope: individual compounds

smiles-structure | MIC99
CCCc1ccc(C(=O)Nc2cc3nc(CN(C)c4ccccc4)[nH]c3cc2N(C)C)cc1 | 5 µg/mL
CN(C)c1cc2[nH]c(CN(C)c3ccccc3)nc2cc1NC(=O)c1ccc(C(C)(C)C)cc1 | 2.5 µg/mL
CCCCOC(=O)Nc1cc2nc(SCC)[nH]c2cc1N(C)C | 1.2 µg/mL
CCCCOC(=O)Nc1cc2nc(C(C)C)[nH]c2cc1N(C)C | 1.25 µg/mL

----------
test: Cytotoxicity against human HepG2 cells assessed as reduction in cell viability at 20 uM incubated for 72 hrs by MTT assay relative to control
Type: cell-based
condition-info: read-out: INH
endpoint: cytotoxicity at 72 h, 20 µM (%)

smiles-structure | endpoint | measure-unit | endpoint-result
CCCCOC(=O)Nc1cc2nc(C3CCCC3)[nH]c2cc1N(C)C | cytotoxicity at 72 h, 20 µM | % | 42
CCCCOC(=O)Nc1cc2nc(CN3CCCCC3)[nH]c2cc1N(C)C | cytotoxicity at 72 h, 20 µM | % | 0
CCCCOC(=O)Nc1cc2nc(Cc3ccccc3)[nH]c2cc1N(C)C | cytotoxicity at 72 h, 20 µM | % | 80
CCCCOC(=O)Nc1cc2nc(CN(CCC)CCC)[nH]c2cc1N(C)C | cytotoxicity at 72 h, 20 µM | % | 0
